Recorded values, source PubChem BioAssay (NCI).

Reported growth values are given for each entry in this list.
# System: SNB-19 CNS
# assay.remarks: NCI-60 one-dose screen, 48 h (100 = growth as untreated, 0 = no growth, -100 = all killed)
# condition.set: 10 µM unless noted
The panel holds about 83,000 compounds, 20% with a hit somewhere; the sample as a whole holds those more often. Active and inactive are the calls of the source. How the source made its calls: active means growth percent below 10; inactive means the rest.
experimental.readout: growth

COc1ccc2[nH]c(O)c(N=NC(=O)c3oc4ccccc4c3C)c2c1 :: 42.7% (inactive)
COc1cc(/C=C/C(=O)c2ccc(Nc3nc(NCCO)nc(N4CCOCC4)n3)cc2)cc(OC)c1OC :: 30.5% (inactive)
Clc1ncccc1Nc1ccc2nnc(-c3ccncc3)n2n1 :: 102% (inactive)
COc1ccc(-n2c(C(O)c3ccccc3)n[nH]c2=S)cc1 (stereo unspecified) :: 99.7% (inactive)
COC(=O)/C(CCC=C(C)C)=C1\[C@@H](OC(C)=O)C[C@@]2(C)[C@H]1C[C@@H](O)[C@H]1[C@@]3(C)CC[C@H](NC(=O)c4cnccn4)[C@@H](C)[C@@H]3CC[C@@]12C :: 96.5% (inactive)
COc1ccc(CSc2nnc(SCC(=O)Nc3ccc(Cl)cc3)s2)cc1 :: 90.9% (inactive)
CCOC(=O)c1cc2c(n1Cc1cc(OC)cc(OC)c1)-c1oncc1CCC2 :: 28.5% (inactive)
COc1cc(C(C)n2cc(-c3ccccc3)nn2)ccc1OC1CCCC1 (stereo unspecified) :: 79.2% (inactive)
O=C(c1ccccc1)N(C(=S)NCCc1ccc(Cl)cc1)c1ccccc1 :: 104% (inactive)
O=C(CSc1ncccc1C(=O)O)Nc1ccc(Oc2ccccc2)cc1 :: 106% (inactive)
CCOc1ccc(Nc2ccnc3cc(Cl)ccc23)cc1 :: 16% (inactive)
FC(F)(F)c1cccc(Nc2nc3ccccc3nc2Nc2cccc(C(F)(F)F)c2)c1 :: 7.81% (active)
CCOC(=O)C1=C(C)N=c2s/c(=C\c3cc(Cl)ccc3O)c(=O)n2C1c1ccc(OC)cc1 (stereo unspecified) :: 99% (inactive)
CC1=C(C(=O)OCC2CCN(C(=O)OC(C)(C)C)CC2)[C@H](c2cccc(Br)c2)C2=C(CC(C)(C)CC2=O)N1 :: 42.5% (inactive)
O=Nc1c(O)ccc2ccccc12.O=Nc1c(O)ccc2ccccc12.O=Nc1c([O-])ccc2ccccc12.[Fe+3] :: 109% (inactive)
Cc1ccc(C(=O)c2oc3ccc4c(C)cc(=O)oc4c3c2C)cc1 :: 41.4% (inactive)
CSc1nc2c(c(=O)[nH]1)N=C1c3ccccc3C(=O)C1C(c1ccccc1)N2 (stereo unspecified) :: 39.8% (inactive)
Oc1c(CN2CCN(c3ccccc3F)CC2)cc(Br)c2cccnc12 :: -16.6% (active)
Cc1cc2c(c(C)c1Cl)C(=O)/C(=C/c1cccc([N+](=O)[O-])c1)O2 :: 96.8% (inactive)
O=C(CCc1nnc2sc(Cc3ccccc3Cl)nn12)c1nc2ncccc2[nH]1 :: 93.3% (inactive)
O=C(/C=C/c1cccc(Cl)c1)OCc1ccc2cc1OCC#C/C=C\C#CCO2 :: 93.9% (inactive)
Cc1nc(Nc2cn[nH]c2C(=O)Nc2ccc(CN3CCN(C)CC3)cc2)c2ccsc2n1 :: 107% (inactive)
O=C(Nc1ccc(Br)cc1F)c1cc(Cl)ccc1O :: 14% (inactive)
COC(=O)[C@@H]1CCCN1C(=O)[C@H]1CCCN1C(=O)[C@@H](Cc1c[nH]c2ccccc12)NC(=S)Nc1cc(C(F)(F)F)cc(C(F)(F)F)c1 :: 37.6% (inactive)
CC[C@]1(O)C[C@@H]2CN(CCc3c([nH]c4ccccc34)[C@@](C(=O)OC)(c3cc4c(cc3OC)N(C)[C@H]3[C@@](O)(C(=O)OC)[C@H](OC(=O)CCCBr)[C@]5(CC)C=CCN6CC[C@]43[C@@H]65)C2)C1 :: 28.8% (inactive)
COc1ccc(C2Nc3ncnc(N)c3N=C3c4ccccc4C(=O)C32)cc1 (stereo unspecified) :: 82.2% (inactive)

###

# System: SK-MEL-28 melanoma
# assay.remarks: NCI-60 one-dose screen, 48 h
# condition.set: 10 µM
About 83,000 compounds went through this panel and 20% of them were active in at least one assay; those are over-represented in the sample as a whole. The source made the active and inactive calls. Rule for the calls: active = growth percent below 10; inactive = the rest.
Outcomes: label 1 (active), label 0 (inactive)

NCCOc1ccccc1/C=C1\c2ccccc2-c2ccc([N+](=O)[O-])cc21 :: label 0
CCOC(=O)c1c2c(n3cccc(Cl)c13)C(=O)c1ncccc1C2=O :: label 0
CC1=C(C(=O)OCC2CCN(C(=O)OC(C)(C)C)CC2)[C@@H](c2cccc(C#N)c2)C2=C(CC(C)(C)CC2=O)N1 :: label 0
N#C/C(=C\c1c(-c2ccccc2)[nH]c2ccccc12)S(=O)(=O)c1ccccc1 :: label 0
O=C(Cn1cc(COc2ncnc3c2cnn3-c2ccccc2)nn1)Nc1ccccn1 :: label 0
O=C1/C(=C\c2ccc[nH]2)c2ccccc2N1c1ccccc1 :: label 0
COC(=O)c1cc2c(n1Cc1ccccc1)-c1oncc1CCC2 :: label 0
Cn1c(=O)n(C)c2cc(CNCCNc3ccnc4cc(Cl)ccc34)ccc21 :: label 1
COc1ccc(Cn2c(Br)c3c(c2-c2cc(OC)c(OC)c(OC)c2)CCc2sc(NC(=O)c4ccc(OC)cc4)nc2-3)cc1 :: label 0
CC1=NCC2NC(=O)NC(C)=C12 (stereo not drawn) :: label 0
Nc1ccn(C2O[C@H](CO)[C@@H](O)[C@H]2O)c(=O)n1 (stereo partly drawn) :: label 0
Cn1c(C(=O)c2cccc3ccccc23)nc2ccccc21 :: label 0
COC(=O)/C(CCC=C(C)C)=C1\[C@@H](OC(C)=O)C[C@@]2(C)[C@H]1C[C@@H](O)[C@H]1[C@@]3(C)CC[C@H](NCCCNCCCCNCCCN)[C@@H](C)[C@@H]3CC[C@@]12C :: label 0
COc1cc(C(=O)O/N=C(\N)Cc2cccc3ccccc23)cc(OC)c1OC :: label 1
C=C(C)CCC(C)N1CCC(N2CCC(C(=O)NCCc3ccccc3)CC2)CC1 (stereo not drawn) :: label 0
COC(=O)/C(CCC=C(C)C)=C1\[C@@H](OC(C)=O)C[C@@]2(C)[C@H]1C[C@@H](O)[C@H]1[C@@]3(C)CC[C@H](NCCO)[C@@H](C)[C@@H]3CC[C@@]12C :: label 0
COc1cccc2c1C=C1CCCCC3=Cc4c(OC)cccc4OC13O2 :: label 0
COc1c(B(O)O)cccc1-c1nc2ccc3n[nH]c(F)c3c2c2c1CCCC2 :: label 0
CN(C)CCCNCc1ccc(-c2ccc(F)c(Cl)c2)o1 :: label 1
Cc1ccc2cc3c(N)c4c(C)ccc(C)c4nc3nc2c1 :: label 1
CC(C)Cn1c2c(c(=S)[nH]c1=O)CCC2 :: label 0
N#Cc1c(N)nc2c(c1N)C(c1ccc(F)cc1)c1ccc(N)cc1O2 (stereo not drawn) :: label 0
N[C@@H](CC/[N+]([O-])=N/O)C(=O)O :: label 0
O=C(CN1C=NC2C(N3CCOCC3)=NC=NC21)c1ccc(Br)cc1 (stereo not drawn) :: label 0
COc1cc(/C=C/C(=O)c2ccc(Nc3nc(NCCO)nc(N4CCOCC4)n3)cc2)cc(OC)c1OC :: label 0
COc1ccc(-c2nnc(COc3ccc(C(=O)/C=C/c4ccco4)cc3)o2)cc1 :: label 0
COc1ccc(C2NCCc3c2[nH]c2ccccc32)cc1CN1CCN(c2ccc(F)cc2)CC1 (stereo not drawn) :: label 0
COc1cc(/C=C2\Oc3cc(OCCCN4CCCC4)ccc3C2=O)cc(OC)c1 :: label 0

###

# Test system: RXF 393 renal
# assay.remarks: NCI-60 one-dose screen, 48 h
# condition.set: 10 µM unless noted
This is part of a sample that, as a whole, favours compounds with a hit. Of some 83,000 tested, about 20% had one in any assay. Calls of active or inactive are those of the source. How the source made its calls: active means growth percent below 10; inactive means the rest.
Outcomes: active, inactive

CCOC(=O)C1(C(=O)OCC)N=C(c2ccccc2)C=C1c1ccccc1 :: inactive
O=C(CN1C(=O)/C(=C\c2ccc(Cl)cc2)SC1=S)Nc1ncc(Cc2ccc(Cl)cc2)s1 :: inactive
CCOC(=O)c1sc(-c2ccc(OS(=O)(=O)c3ccccc3[N+](=O)[O-])c(C=O)c2)nc1C :: inactive
COc1ccc(CCN2CCC(CN(C)Cc3cnn(-c4ccccc4)c3)CC2)cc1 :: inactive
COc1ccc(/C=C2\NC(=O)NC2=O)cc1O :: inactive
O=C(Nc1ccc(F)cc1F)c1cc(Cl)ccc1O :: active
O=C(Nc1ccc(I)cc1F)c1cc(Br)ccc1O :: active
COc1ccc(/C=c2\sc3n(c2=O)NC2C(N=3)N(C)C(=O)N2C)cc1 (stereo not given) :: inactive
O=C(Nc1ccc(N2CCNCC2)cc1)c1[nH]ncc1Nc1cc(C2CC2)ncn1 :: inactive
CCCCC(O)(c1ccc(Cl)cc1)C(CN1CCOCC1)c1ccc(Cl)cc1 (stereo not given) :: inactive
